# tested on: human TRPV4 (Homo sapiens, UniProt Q9HBA0)
# Construct: host or cells: tetracycline-inducible Flp-In T-REx 293 cells
# Sequence (Q9HBA0 whole entry): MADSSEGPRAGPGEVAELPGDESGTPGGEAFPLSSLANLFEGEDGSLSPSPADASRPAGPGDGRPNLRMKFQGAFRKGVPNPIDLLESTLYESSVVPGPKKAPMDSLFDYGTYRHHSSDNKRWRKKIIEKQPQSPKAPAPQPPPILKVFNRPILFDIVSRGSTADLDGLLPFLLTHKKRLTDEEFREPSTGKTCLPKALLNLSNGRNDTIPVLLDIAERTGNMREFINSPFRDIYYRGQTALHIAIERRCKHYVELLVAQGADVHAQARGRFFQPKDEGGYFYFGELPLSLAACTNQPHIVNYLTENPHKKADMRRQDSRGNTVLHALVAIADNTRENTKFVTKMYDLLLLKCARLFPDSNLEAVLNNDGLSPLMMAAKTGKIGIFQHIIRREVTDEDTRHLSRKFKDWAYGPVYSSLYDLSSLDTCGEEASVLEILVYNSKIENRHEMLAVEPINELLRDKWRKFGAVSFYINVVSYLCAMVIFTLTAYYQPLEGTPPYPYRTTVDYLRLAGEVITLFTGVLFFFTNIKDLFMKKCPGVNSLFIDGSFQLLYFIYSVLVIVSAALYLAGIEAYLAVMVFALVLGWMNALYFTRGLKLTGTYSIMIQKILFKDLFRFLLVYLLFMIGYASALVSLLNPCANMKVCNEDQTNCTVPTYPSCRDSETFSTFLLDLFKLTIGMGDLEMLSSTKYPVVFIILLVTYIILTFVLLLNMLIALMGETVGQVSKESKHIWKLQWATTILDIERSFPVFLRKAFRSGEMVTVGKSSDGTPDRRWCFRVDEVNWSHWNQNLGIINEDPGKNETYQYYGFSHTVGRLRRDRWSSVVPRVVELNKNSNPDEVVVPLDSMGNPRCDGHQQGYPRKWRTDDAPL
# experiment description: Hypotonicity-induced Ca2+ influx (Fluo-4, FDSS)
# Format: cell-based
# condition details: Flp-In T-REx 293 cells stably expressing human TRPV4, compounds listed by potency bin (<10 nM Tables 96-1/96-2, <3 nM Table 97)
measured endpoint: IC50

>  <molecule>
O=C([C@H](O)c1cccc(-c2cccc(OC(F)(F)F)c2)c1)N1CCCc2c(nc(C3(c4ccccc4)CC3)[nH]c2=O)C1

>  <recorded value>
< 10 nM

$$$$
>  <molecule>
CN(C(=O)c1csc(C2(c3nc4c(c(=O)[nH]3)CN(C(=O)[C@H](O)c3cccc(C(F)(F)F)c3)CCC4)CC2)c1)C(c1ccccc1)c1ccccc1

>  <recorded value>
< 10 nM

$$$$
>  <molecule>
O=C(C(O)c1cccc(-c2cnc3ccccc3c2)c1)N1CCc2nc(C3(c4ccccc4)CC3)[nH]c(=O)c2C1 (stereo not drawn)

>  <recorded value>
< 10 nM

$$$$
>  <molecule>
O=C([C@H](O)c1cccc(-c2coc3ccccc23)c1)N1CCCc2nc(C3(c4ccccc4)CC3)[nH]c(=O)c2C1

>  <recorded value>
< 3 nM

$$$$
>  <molecule>
O=C([C@H](O)c1cccc(Cl)c1)N1CCc2nc(C3(c4cncc(C5CCC(F)(F)CC5)c4)CC3)[nH]c(=O)c2C1

>  <recorded value>
< 10 nM

$$$$
>  <molecule>
O=C([C@H](O)c1cccc(-c2cc(Cl)cc(OC(F)(F)F)c2)c1)N1CCc2nc(C3(c4cccc(Cl)c4)CC3)[nH]c(=O)c2C1

>  <recorded value>
< 10 nM

$$$$
>  <molecule>
CN(C)c1ccc(-c2cccc(C3(c4nc5c(c(=O)[nH]4)CN(C(=O)[C@H](O)c4cccc(C(F)(F)F)c4)CCC5)CC3)c2)cn1

>  <recorded value>
< 3 nM

$$$$
>  <molecule>
O=C(Cc1ccccc1OCc1ccccc1)N1CCCc2nc(C3(c4cccc(Cl)c4)CC3)[nH]c(=O)c2C1

>  <recorded value>
< 10 nM

$$$$
>  <molecule>
CC(C)C(=O)N1CCN(c2ccc(-c3cccc(C4(c5nc6c(c(=O)[nH]5)CN(C(=O)[C@H](O)c5cccc(C(F)(F)F)c5)CCC6)CC4)c3)cn2)CC1

>  <recorded value>
< 10 nM

$$$$
>  <molecule>
O=C([C@H](O)c1cccc(C(F)(F)F)c1)N1CCCc2nc(C3(c4cccc(Cl)c4)CC3)[nH]c(=O)c2C1

>  <recorded value>
< 10 nM

$$$$
>  <molecule>
O=C([C@H](O)c1cccc(-c2ccc(OCc3ccccc3)nc2)c1)N1CCCc2nc(C3(c4ccccc4)CC3)[nH]c(=O)c2C1

>  <recorded value>
< 3 nM

$$$$
>  <molecule>
O=C(c1cccc(-c2cccc(C3(c4nc5c(c(=O)[nH]4)CN(C(=O)[C@H](O)c4cccc(C(F)(F)F)c4)CCC5)CC3)c2)c1)N1CCCCC1

>  <recorded value>
< 3 nM

$$$$
>  <molecule>
CC(C)c1cncc(C2(c3nc4c(c(=O)[nH]3)CN(C(=O)C(O)c3cccc(-c5cccc(C(F)(F)F)c5)c3)CCC4)CC2)c1 (stereo not drawn)

>  <recorded value>
< 10 nM

$$$$
>  <molecule>
CC(C)c1cncc(C2(c3nc4c(c(=O)[nH]3)CN(C(=O)[C@H](O)c3cccc(-c5cccc(OC(F)(F)F)c5)c3)CCC4)CC2)c1

>  <recorded value>
< 10 nM

$$$$
>  <molecule>
O=C(C(O)c1cccc(-c2cc3ccccc3s2)c1)N1CCc2nc(C3(c4ccccc4)CC3)[nH]c(=O)c2C1 (stereo not drawn)

>  <recorded value>
< 10 nM

$$$$
>  <molecule>
O=C(C(O)c1cccc(-c2cc(C(F)(F)F)ccc2Cl)c1)N1CCc2nc(C3(c4ccccc4)CC3)[nH]c(=O)c2C1 (stereo not drawn)

>  <recorded value>
< 10 nM

$$$$
>  <molecule>
O=C([C@H](O)c1cccc(Cl)c1)N1CCc2nc(C3(c4cccc(Oc5ccccc5)c4)CC3)[nH]c(=O)c2C1

>  <recorded value>
< 10 nM

$$$$
>  <molecule>
CC(C)(C)c1cccc(-c2cccc(CC(=O)N3CCCc4nc(C5(c6ccccc6)CC5)[nH]c(=O)c4C3)c2)c1

>  <recorded value>
< 10 nM

$$$$
>  <molecule>
O=C([C@H](O)c1cccc(-c2cccc(C(F)(F)F)c2)c1)N1CCCc2nc(C3(c4cccc(C5CCCCC5)c4)CC3)[nH]c(=O)c2C1

>  <recorded value>
< 10 nM

$$$$
>  <molecule>
O=C([C@H](O)c1cccc(-c2ccc(Cl)c(C(F)(F)F)c2)c1)N1CCc2nc(C3(c4cccc(Cl)c4)CC3)[nH]c(=O)c2C1

>  <recorded value>
< 10 nM

$$$$
>  <molecule>
O=C(C(O)c1cccc(-c2cccc(OC(F)(F)F)c2)c1)N1CCCc2nc(C3(c4cccc(Cl)c4)CC3)[nH]c(=O)c2C1 (stereo not drawn)

>  <recorded value>
< 10 nM

$$$$
>  <molecule>
O=C([C@H](O)c1cccc(C(F)(F)F)c1)N1CCc2nc(C3(c4cccc(C5CCOCC5)c4)CC3)[nH]c(=O)c2C1

>  <recorded value>
< 10 nM

$$$$
>  <molecule>
O=C([C@H](O)c1cccc(-c2cc3ccccc3s2)c1)N1CCCc2nc(C3(c4ccccc4)CC3)[nH]c(=O)c2C1

>  <recorded value>
< 3 nM

$$$$
>  <molecule>
O=C([C@H](O)c1cccc(-c2ccc(Cl)cc2)c1)N1CCCc2nc(C3(c4ccccc4)CC3)[nH]c(=O)c2C1

>  <recorded value>
< 3 nM

$$$$
